Can you tell me kcat/Km for the items I'm about to list?
Substrate: OC[C@@H](O)[C@H](O)[C@@H](O)CO
Assay info: purified protein
Experimental conditions: 1-10 mM xylitol, 1.5 mM NAD+, 50 mM Tris-HCl pH 8.0, 30 °C
State the value, then name its unit.

{"Protein": "SpXDH C100S mutant (enzyme, Schizosaccharomyces pombe, UniProt P36624 1-360, looked up, SPBC1773.05c protein of S. pombe (SpXDH), cloned into pQE-81L; source: E. coli DH5α, purified (Ni-NTA)) MAPAEKAFVLRKKMDTAIEDRPGQTLTDDHQVKVAIKATGICGSDVHYWKEGGIGDFILKKPMILGHESAGVVVEVGKGVSSLKPGDPVAVEPGCVCRLSDYCRSGRYNLCPHMEFAATPPYDGTLRTYYITTEDFCTKLPKQISVEEGALFEPMSVAVHAMTRGNLKCGSRVLVMGCGTVGLLMMAVAKAYGAIDIVAVDASPSRVEFAQKYVGAKPFTPIAAKENESLPDYAQRYKQAIIEKYGEFDFAVDATGVGICIHTAVLALKRGGTFVQAGNGKPVIDFPINHIINYEINVLGSFRYAHGCYKQSLFLVSNGLVDVKPLITHRFAFKDALKAYETVASGEEGVLKVIIGGPDA", "kcat/Km": "12.4 M⁻¹ s⁻¹"}

Here's the next entry for you.
Query :: Give the value of kcat/Km reported for the following: SpXDH C97S mutant (enzyme, Schizosaccharomyces pombe, UniProt P36624 1-360, looked up, SPBC1773.05c protein of S. pombe (SpXDH), cloned into pQE-81L; source: E. coli DH5α, purified (Ni-NTA)) MAPAEKAFVLRKKMDTAIEDRPGQTLTDDHQVKVAIKATGICGSDVHYWKEGGIGDFILKKPMILGHESAGVVVEVGKGVSSLKPGDPVAVEPGCVSRLCDYCRSGRYNLCPHMEFAATPPYDGTLRTYYITTEDFCTKLPKQISVEEGALFEPMSVAVHAMTRGNLKCGSRVLVMGCGTVGLLMMAVAKAYGAIDIVAVDASPSRVEFAQKYVGAKPFTPIAAKENESLPDYAQRYKQAIIEKYGEFDFAVDATGVGICIHTAVLALKRGGTFVQAGNGKPVIDFPINHIINYEINVLGSFRYAHGCYKQSLFLVSNGLVDVKPLITHRFAFKDALKAYETVASGEEGVLKVIIGGPDA
Result :: 493 M⁻¹ s⁻¹
